Tested on: K562
Assay Procedure: cell viability relative to vehicle control; higher = less cytotoxic;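 further: after 48 h exposure read by CellTiter-Glo luminescence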
Condition Summary: 10 µM; SRSF2 genotype: SRSF2 wt/wt

Smi	cell viability (%)
Clc1ccccc1C(c1ccccc1)(c1ccccc1)n1ccnc1	75.9
O=C(O[C@@H]1O[C@@H]2COC(=O)c3cc(O)c(O)c(O)c3-c3c(cc(O)c(O)c3O)C(=O)O[C@H]([C@H]1O)[C@@H]2O)c1cc(O)c(O)c(O)c1	81.5
Cc1cnc(C(=O)N[C@H]2CCCCC/C=C\[C@@H]3C[C@@]3(C(=O)NS(=O)(=O)C3CC3)NC(=O)[C@@H]3C[C@@H](Oc4nc5ccccc5c5ccccc45)CN3C2=O)cn1	91.4
OC[C@H]1O[C@@](CO)(OC[C@@]2(OC[C@@]3(OC[C@@]4(O[C@H]5O[C@H](CO)[C@@H](O)[C@H](O)[C@H]5O)O[C@H](CO)[C@@H](O)[C@@H]4O)O[C@H](CO)[C@@H](O)[C@@H]3O)O[C@H](CO)[C@@H](O)[C@@H]2O)[C@@H](O)[C@@H]1O	104
COc1ccc(CCNCc2ccc(OCc3ccc(Cl)nc3)c(OC)c2)cc1OC	89.8

----------
cell viability values by entry
System: MOLM14
Assay Procedure: cell viability relative to vehicle control; higher = less cytotoxic
Condition Summary: 10 µM; SRSF2 genotype: SRSF2 P95H/wt
Structures can show the parent of a compound that is named as a salt.

Molecule	cell viability, %
CN(C)CC/C=C1/c2ccccc2Sc2ccc(Cl)cc21 [Chlorprothixene]	66.2
COc1ccc(/C=C/C(=O)Nc2ccccc2C(=O)O)cc1OC	98.9
C[C@H]1COc2c(N3CCN(C)CC3)c(F)cc3c(=O)c(C(=O)O)cn1c23 [Levofloxacin (Levaquin)]	95.2
N#CC(=Cc1ccc(-c2cc(Cl)ccc2Cl)o1)C(=O)Nc1cccc2ncccc12	116
CN(c1ccccc1CNc1nc(Nc2ccc3c(c2)CC(=O)N3)ncc1C(F)(F)F)S(C)(=O)=O	0.69
CNC[C@H](O)c1cccc(O)c1 [Phenylephrine hydrochloride]	101
CCN1CCCC1CNC(=O)c1cc(S(=O)(=O)CC)c(N)cc1OC (centres undefined) [Amisulpride]	109
COC(=O)N[C@H](C(=O)N1CCC[C@H]1c1nc(-c2ccc3c(c2)O[C@@H](c2ccccc2)n2c-3cc3cc(-c4c[nH]c([C@@H]5CCCN5C(=O)[C@@H](NC(=O)OC)C(C)C)n4)ccc32)c[nH]1)C(C)C [Elbasvir]	81.9
CC(C)(C)NCC(O)c1ccc(O)c(CO)c1 (centres undefined) [Salbutamol]	99.4
OC1CCC(Oc2cccc3cnc(Nc4ccc5nc[nH]c5c4)nc23)CC1 (centres undefined)	1.38
CCN(CC)CC#CCOC(=O)C(O)(c1ccccc1)C1CCCCC1 (centres undefined) [Oxybutynin chloride]	83
CCc1cc2c(cc1N1CCC(N3CCOCC3)CC1)C(C)(C)c1[nH]c3cc(C#N)ccc3c1C2=O	66.7
Oc1ccc2c(c1)OCO2 [Sesamol]	86.5
Cn1ccnc1S [Methimazole (Tapazole, Northyx)]	97.7
O=C(/C=C\n1cnc(-c2cc(C(F)(F)F)cc(C(F)(F)F)c2)n1)NNc1cnccn1 [Selinexor (KPT-330)]	2.17
COc1cccc(/C=N/N(C(=O)C(F)(F)F)c2ccc(C)cc2C)c1	98.5
Cc1cc2c(s1)Nc1ccccc1N=C2N1CCN(C)CC1 [Olanzapine (Zyprexa)]	93.8
CC(C)n1nc(-c2ccc3oc(N)nc3c2)c2c(N)ncnc21	13.6
O=S(=O)(NCCSSCCNS(=O)(=O)c1cc(Cl)ccc1Cl)c1cc(Cl)ccc1Cl	53.8
